System: HepG2 cells (hepatocellular carcinoma)
Assay: General cytotoxicity on HepG2 cells (CC50; therapeutic index CC50 HepG2/IC50 Mino)
Format: cell-based
Settings: Table 10; therapeutic index
OBSERVED_PROPERTY: CC50 (HepG2)/IC50 (Mino)

Req: Record request: CC50 (HepG2)/IC50 (Mino) value, item `C=CC(=O)N1CCC[C@@H](n2nc(-c3ccc(-n4ccc(=O)cc4)nc3)c3c(N)ncc(Cl)c32)C1`
Resp: >6.27

Req: Record request: CC50 (HepG2)/IC50 (Mino) value, item `C=CC(=O)N1CCC[C@@H](n2nc(-c3ccc(C(=O)Nc4ncccc4F)cc3)c3cncc(F)c32)C1`
Resp: >3.47

Req: Record request: CC50 (HepG2)/IC50 (Mino) value, item `C=CC(=O)N1CCC[C@@H](n2nc(-c3ccc(-n4ccc(=O)cc4)cc3)c3c(N)ncc(Cl)c32)C1`
Resp: >4.25

Req: Record request: CC50 (HepG2)/IC50 (Mino) value, item `C=CC(=O)N1CCC[C@@H](n2nc(-c3ccc(-n4ccc(=O)cc4)nc3)c3cncc(Cl)c32)C1`
Resp: >1.54

Req: Record request: CC50 (HepG2)/IC50 (Mino) value, item `C=CC(=O)N1CCC[C@H]1Cn1nc(-c2ccc(Oc3ccncc3)cc2)c2cncc(Cl)c21`
Resp: >2.42

Req: Record request: CC50 (HepG2)/IC50 (Mino) value, item `C=CC(=O)N1CCC[C@@H](n2nc(-c3ccc(C(=O)Nc4ncccc4F)cc3)c3cncc(C#N)c32)C1`
Resp: >5.37

###

I'd appreciate it if you could supply CC50 (HepG2)/IC50 (Mino) values for the items below.
Tested on: HepG2 cells (hepatocellular carcinoma)
Experiment: General cytotoxicity on HepG2 cells (CC50; therapeutic index CC50 HepG2/IC50 Mino)
Assay type: cell-based
Conditions: Table 10; therapeutic index

Req: Record request: CC50 (HepG2)/IC50 (Mino) value, item `C=CC(=O)N1CCC[C@@H](n2nc(-c3ccc(C(=O)Nc4cc(C(F)(F)CCC)ccn4)cc3)c3cncc(Cl)c32)C1`
Resp: >22.43

Req: Record request: CC50 (HepG2)/IC50 (Mino) value, item `C=CC(=O)N1CCC[C@@H](n2nc(-c3ccc(C(=O)Nc4ncccc4F)cc3)c3c(N)ncc(C#N)c32)C1`
Resp: >2.89

Req: Record request: CC50 (HepG2)/IC50 (Mino) value, item `C=CC(=O)N1CC[C@H](Cn2nc(-c3ccc(C(=O)Nc4ccccn4)cc3)c3cncc(Cl)c32)C1`
Resp: >9.91

###

Test: Stability in human blood plasma
Conditions: 10 μM in pooled human blood plasma, incubated 4 hours at 37° C.
I'd appreciate it if you could supply Amount of substance in the sample, % (stability in human blood plasma) values for the items below.
Give the quantity in %, number only.

Req: Record request: Amount of substance in the sample, % (stability in human blood plasma) value, item `C=CC(=O)N1CCC[C@@H](n2nc(-c3ccc(Oc4ccncc4C#N)cc3)c3c(N)ncc(Cl)c32)C1`
Resp: 88.6

Req: Record request: Amount of substance in the sample, % (stability in human blood plasma) value, item `C=CC(=O)N1CCC[C@@H](n2nc(-c3ccc(C(=O)Nc4cc(C(F)(F)CCC)ccn4)cc3)c3cncc(C#N)c32)C1`
Resp: 91.0

Req: Record request: Amount of substance in the sample, % (stability in human blood plasma) value, item `C=CC(=O)N1CCC[C@@H](n2nc(-c3ccc(-n4ccc(=O)c(C#N)c4)cc3)c3cncc(Cl)c32)C1`
Resp: 91.4

Req: Record request: Amount of substance in the sample, % (stability in human blood plasma) value, item `C=CC(=O)N1CCC[C@@H](n2nc(-c3ccc(Oc4cncc(C(N)=O)c4)cc3)c3cncc(F)c32)C1`
Resp: 91.3

Req: Record request: Amount of substance in the sample, % (stability in human blood plasma) value, item `CC#CC(=O)N1CCC[C@H]1Cn1nc(-c2ccc(Oc3ccncc3)cc2)c2cncc(Cl)c21`
Resp: 90.7

###

Test system: HepG2 cells (hepatocellular carcinoma)
Assay: General cytotoxicity on HepG2 cells (CC50; therapeutic index CC50 HepG2/IC50 Mino)
Format: cell-based
Details: Table 10; therapeutic index
OBSERVED_PROPERTY: CC50 (HepG2)/IC50 (Mino)
Lab note: record just the number, no unit beside it.

Req: Record request: CC50 (HepG2)/IC50 (Mino) value, item C=CC(=O)N1CCC[C@@H](n2nc(-c3ccc(Oc4ccncc4C#N)cc3)c3c(N)ncc(Cl)c32)C1 [BCD-BTK-232]
Resp: 2.04

Req: Record request: CC50 (HepG2)/IC50 (Mino) value, item C=CC(=O)N1CCC[C@@H](n2nc(-c3ccc(C(=O)Nc4cc(C(F)(F)CC)ccn4)cc3)c3c(N)ncc(Cl)c32)C1 [BCD-BTK-231]
Resp: 4.01

Req: Record request: CC50 (HepG2)/IC50 (Mino) value, item C=CC(=O)N1CCC[C@@H](n2nc(-c3ccc(Oc4cccnc4C#N)cc3)c3cncc(C#N)c32)C1 [BCD-BTK-216]
Resp: 18.77

Req: Record request: CC50 (HepG2)/IC50 (Mino) value, item CC#CC(=O)N1CC[C@@H](n2nc(-c3ccc(Oc4ccncc4)cc3)c3cncc(Cl)c32)C1 [BCD-BTK-265]
Resp: 2.09

Req: Record request: CC50 (HepG2)/IC50 (Mino) value, item C=CC(=O)N1CCC[C@@H](n2nc(-c3ccc(C(=O)Nc4ccc(F)cn4)cc3)c3c(N)ncc(Cl)c32)C1 [BCD-BTK-237]
Resp: 4.54

Req: Record request: CC50 (HepG2)/IC50 (Mino) value, item C=CC(=O)Oc1cc(C#N)c2c(c1)c(-c1ccc(-n3ccc(=O)cc3)cc1)nn2[C@@H]1CCCN(C(=O)C=C)C1 [BCD-BTK-118]
Resp: 4.83

Req: Record request: CC50 (HepG2)/IC50 (Mino) value, item C=CC(=O)N1CCC[C@@H](n2nc(-c3ccc(Oc4cncc(C(N)=O)c4)cc3)c3cncc(F)c32)C1 [BCD-BTK-274]
Resp: 0.95

###

Assay: Stability in human blood plasma
Conditions: 10 μM in pooled human blood plasma, incubated 4 hours at 37° C.
I'd appreciate it if you could supply Amount of substance in the sample, % (stability in human blood plasma) values for the items below.
Give the quantity in %, number only.

Req: Record request: Amount of substance in the sample, % (stability in human blood plasma) value, item C=CC(=O)N1CCC[C@@H](n2nc(-c3ccc(C(=O)Nc4cc(C(F)(F)F)ccn4)cc3)c3c(N)ncc(Cl)c32)C1 [BCD-BTK -251]
Resp: 89.2

Req: Record request: Amount of substance in the sample, % (stability in human blood plasma) value, item C=CC(=O)N1CCC[C@@H](n2nc(-c3ccc(C(=O)Nc4ccccn4)cc3)c3c(N)ncc(OC)c32)C1 [BCD-BTK-240]
Resp: 100.0

Req: Record request: Amount of substance in the sample, % (stability in human blood plasma) value, item C=CC(=O)N1CCC[C@@H](n2nc(-c3ccc(Oc4ccncc4)cc3)c3cncc(F)c32)C1 [BCD-BTK-211]
Resp: 94.8

Req: Record request: Amount of substance in the sample, % (stability in human blood plasma) value, item C=CC(=O)N1CCC[C@@H](n2nc(-c3ccc(C(=O)Nc4cc(C(F)(F)CC)ccn4)cc3)c3c(N)ncc(Cl)c32)C1 [BCD-BTK-231]
Resp: 93.1

Req: Record request: Amount of substance in the sample, % (stability in human blood plasma) value, item CC#CC(=O)N1CCC[C@@H](n2nc(-c3ccc(C(=O)Nc4ccccn4)cc3)c3c(N)ncc(Cl)c32)C1 [BCD-BTK -295]
Resp: 100.0

Req: Record request: Amount of substance in the sample, % (stability in human blood plasma) value, item C=CC(=O)N1CCC[C@@H](n2nc(-c3ccc(-n4ccc(=O)cc4)c(F)c3)c3cncc(Cl)c32)C1 [BCD-BTK-205]
Resp: 88.6

Req: Record request: Amount of substance in the sample, % (stability in human blood plasma) value, item C=CC(=O)N1CCC[C@@H](n2nc(-c3ccc(-n4ccc(=O)cc4)cc3F)c3cncc(Cl)c32)C1 [BCD-BTK-204]
Resp: 91.9

Req: Record request: Amount of substance in the sample, % (stability in human blood plasma) value, item C=CC(=O)N1CCC[C@@H](n2nc(-c3ccc(Oc4cccnc4C#N)cc3)c3cncc(Cl)c32)C1 [BCD-BTK-218]
Resp: 92.0

Req: Record request: Amount of substance in the sample, % (stability in human blood plasma) value, item C=CC(=O)N1CCC[C@@H](n2nc(-c3ccc(Oc4ccncc4)cc3)c3cncc(Cl)c32)C1 [BCD-BTK -125]
Resp: 97.8
